# c-Met Inhibition rate (%) annotations
Biological target: recombinant human c-Met residues 974-end (Homo sapiens)
Construct: recombinant human c-Met residues 974-end; 6His; purchased Millipore
Assay: Inhibition of c-Met kinase (TR-FRET)
Assay type: biochemical
Conditions: concentration not given
Protocol: The inhibitions of c-Met kinase were investigated referred to a published literature. The IC50 values were detected using TR-FRET. 50 nM 6 His-tagged recombinant human c-Met residues 974-end (Millipore) was cultured in medium containing 2.5 m mol/L MnCl2, 10 m mol/L MgCl2, 20 m mol/L Tris, 2 m mol/L DTT and 0.01% Tween 20 with 5 m mol/L ATP and 200 n mol/L 5FAM-KKK -[…]-NH2 with 25 μL at room temperature for 60 min. […] Plates were incubated for an overnight and analyzed by using AiphaQuest.
Express it in %; write the number only.

Take a look at these entries with their results.
| Compound | Unit info | c-Met Inhibition rate (%) |
| --- | --- | --- |
| CC(C)=C1C/C=C(\C)CC/C=C(\C)CC1OC(=O)/C=C\c1ccccc1 (stereo not shown) [Compound 3e] | % | 41 |
| CC(C)=C1C/C=C(\C)CC/C=C(\C)CC1O (stereo not shown) [Compound 2] | % | 23 |
| CC(C)=C1C/C=C(\C)CC/C=C(\C)CC1OC(=O)c1ccc(C)cc1 (stereo not shown) [Compound 3b] | % | 56 |
| CC(C)=C1C/C=C(\C)CC/C=C(\C)CC1OC(=O)c1ccc(C(F)(F)F)cc1 (stereo not shown) [Compound 3d] | % | 38 |
| CC(C)=C1C/C=C(\C)CC/C=C(\C)CC1=O [Compound 1, germacrone, reference compound] | % | 27 |
| CC(=O)OC1C/C(C)=C/CC/C(C)=C/CC1=C(C)C (stereo not shown) [Compound 3a] | % | 31 |

q: Need c-Met Inhibition rate (%), item CC(C)=C1C/C=C(\C)CC/C=C(\C)CC1OC(=O)c1cccc(C)c1 (stereo not shown) [Compound 3c]
a: 47

###

biological target: recombinant human c-Met residues 974-end (Homo sapiens, UniProt P08581); construct: recombinant human c-Met residues 974-end; 6His; test: Inhibition of c-Met kinase (TR-FRET); details: TR-FRET; read-out: IC50 against c-Met kinase
Sequence (P08581 974-1390 limits assumed): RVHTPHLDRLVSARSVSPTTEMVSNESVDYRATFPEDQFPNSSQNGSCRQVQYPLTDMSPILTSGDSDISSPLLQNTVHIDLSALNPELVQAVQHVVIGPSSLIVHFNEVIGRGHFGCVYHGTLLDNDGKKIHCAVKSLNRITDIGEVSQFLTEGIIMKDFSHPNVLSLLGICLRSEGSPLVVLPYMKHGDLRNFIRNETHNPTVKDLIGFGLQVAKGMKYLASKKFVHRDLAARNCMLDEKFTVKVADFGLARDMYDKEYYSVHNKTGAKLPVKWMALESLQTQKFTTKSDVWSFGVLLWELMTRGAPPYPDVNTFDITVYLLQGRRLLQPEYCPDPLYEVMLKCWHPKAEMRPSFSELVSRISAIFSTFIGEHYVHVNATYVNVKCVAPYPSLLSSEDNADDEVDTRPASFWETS
# label = Y if IC50 < 900 nM else N

| Compound | Category |
| --- | --- |
| CC(C)=C1C/C=C(\C)CC/C=C(\C)CC1OC(=O)c1cccc(C)c1 (stereo not shown) | Y |

In the following, a different compound is considered.
q: Please let me know if CC(C)=C1C/C=C(\C)CC/C=C(\C)CC1=O [Compound 1, germacrone, reference compound] shows IC50 below 900 nM.
a: N

###

target: recombinant human c-Met residues 974-end (Homo sapiens, UniProt P08581); construct: recombinant human c-Met residues 974-end; 6His; purchased Millipore; assay: Inhibition of c-Met kinase (TR-FRET); format: biochemical; conditions: 12.50 μM; read-out: Inhibitory rate on c-Met kinase
# inhibition at 12.5 µM annotations
Express it in %; write the number only.

Take a look at these entries with their results.
| Compound | Unit info | inhibition at 12.5 µM |
| --- | --- | --- |
| CC(C)=C1C/C=C(\C)CC/C=C(\C)CC1OC(=O)c1ccc(C)cc1 (stereo not shown) | % | 77.8 |
| CC(C)=C1C/C=C(\C)CC/C=C(\C)CC1OC(=O)c1ccc(C(F)(F)F)cc1 (stereo not shown) | % | 75.5 |
| CC(C)=C1C/C=C(\C)CC/C=C(\C)CC1O (stereo not shown) | % | 70 |
| CC(C)=C1C/C=C(\C)CC/C=C(\C)CC1OC(=O)/C=C\c1ccccc1 (stereo not shown) | % | 75.7 |
| CC(=O)OC1C/C(C)=C/CC/C(C)=C/CC1=C(C)C (stereo not shown) | % | 74.6 |
| CC(C)=C1C/C=C(\C)CC/C=C(\C)CC1OC(=O)c1cccc(C)c1 (stereo not shown) | % | 73.8 |

Consider now this further compound.
q: Need inhibition at 12.5 µM, item CC(C)=C1C/C=C(\C)CC/C=C(\C)CC1=O [Compound 1, germacrone, reference compound]
a: 73.7
